Tested on: Klebsiella aerogenes 1082E
Experiment: In vitro antibacterial activity (MIC, agar dilution), Biological Example 1
Format: cell-based
Settings: 18 h, Table 25, read-out: Minimum Inhibitory Concentration
READOUT_NAME: log10(MIC) (log10 of the value in µg/mL)
Reminder: these figures are log10 of reported MIC, in µg/mL before transformation.

Looking up C#CCON=C1CN(c2nc3c(cc2F)c(=O)c(C(=O)O)cn3C2CC2)CC1CN (stereo not shown) [Example 103] , I see its log10(MIC) listed as -1.51

Looking up CON=C1CN(c2nc3c(cc2F)c(=O)c(C(=O)O)cn3C2CC2)CC1CN (stereo not shown) [Example 180] , I see its log10(MIC) listed as -1.80

Looking up NCC1CN(c2nc3c(cc2F)c(=O)c(C(=O)O)cn3C2CC2)CC1=NOCc1ccccc1 (stereo not shown) [Example 1] , I see its log10(MIC) listed as -1.20

Looking up CON=C1CN(c2c(F)cc3c(=O)c(C(=O)O)cn(C4CC4)c3c2Cl)CC1CN (stereo not shown) [Example 178] , I see its log10(MIC) listed as -0.60

Looking up CC(C)ON=C1CN(c2nc3c(cc2F)c(=O)c(C(=O)O)cn3C2CC2)CC1CN (stereo not shown) [Example 97] , I see its log10(MIC) listed as -0.89

Looking up CON=C1CN(c2cc3c(cc2F)c(=O)c(C(=O)O)cn3C2CC2)CC1CN (stereo not shown) [Example 179] , I see its log10(MIC) listed as -1.51

Looking up CON=C1CN(c2c(F)cc3c(=O)c(C(=O)O)cn(C4CC4)c3c2F)CC1CN (stereo not shown) [Example 177] , I see its log10(MIC) listed as -1.20

Looking up CC(C)(C)ON=C1CN(c2nc3c(cc2F)c(=O)c(C(=O)O)cn3C2CC2)CC1CN (stereo not shown) [Example 89] , I see its log10(MIC) listed as -0.60

Looking up NCC1CN(c2c(F)c(N)c3c(=O)c(C(=O)O)cn(C4CC4)c3c2F)CC1=NOCc1ccccc1 (stereo not shown) [Example 56] , I see its log10(MIC) listed as -1.80

Looking up CC(C)CON=C1CN(c2nc3c(cc2F)c(=O)c(C(=O)O)cn3C2CC2)CC1CN (stereo not shown) [Example 102] , I see its log10(MIC) listed as -0.60
